assayed_system: recombinant cynomolgus monkey CD3ε/δ heterodimer (cynomolgus monkey) (UniProt Q95LI5)
Sequence (Q95LI5 22-117, stated change not applied, chain 1 of 2): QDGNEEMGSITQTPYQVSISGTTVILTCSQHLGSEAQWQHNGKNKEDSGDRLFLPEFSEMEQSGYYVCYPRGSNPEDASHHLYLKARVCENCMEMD
Sequence (Q95LI8 22-105, stated change not applied, chain 2 of 2, further chain): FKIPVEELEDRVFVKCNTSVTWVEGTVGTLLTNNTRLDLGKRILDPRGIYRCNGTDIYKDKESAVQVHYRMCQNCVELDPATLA
measurement_protocol: BLI (Octet), antigen on anti-Penta His sensor, antibody 50 nM
Reported kon values for a set of binders
// note: answer is a bare numeric in M⁻¹ s⁻¹

binder | reported_endpoint | unit_name | experimental_value
B07 (antibody, human IgG1, lambda, L234A L235A, V domains shown) VH: EVQLVESGGGLVQPGGSLKLSCAASGFTFNTYAMNWVRQASGKGLEWVGRIRSKYNNYATYYADSVKDRFTISRDDSKNTLYLQMNSLKTEDTAVYYCVRHGNFGNSYVSWFAYWGQGTLVTVSS VL: QAVVTQEPSLTVSPGGTVTLTCRSSTGAVTTSNYANWFQQKPGQAPRGLIGGTNKRAPWTPARFSGSLLGGKAALTLSGAQPEDEAEYYCALWYSNLWVFGGGTKLTVLG | kon | M⁻¹ s⁻¹ | 208000

Next binder, kon to be filled in.
Could you tell me which kon is on file for E16 (antibody, human IgG1, lambda, L234A L235A, V domains shown) VH: EVQLVESGGGLVQPGGSLKLSCAASGFTFNTYAMNWVRQASGKGLEWVARIRSKYNNYATYYADSVKDRFTISRDDSKNTAYLQMNSLKTEDTAVYYCVRHGNFGNSYVSWFAYWGQGTLVTVSS VL: QAVVTQEPSLTVSPGGTVTLTCRSSTGAVTTSNYANWVQQKPGQAPRGLIGGTNKRAPWTPARFSGSLLGDKAALTLSGAQPEDEAEYYCALWYSNLWVFGGGTKLTVLG ?
220000
